Target: SMARCA4-HiBiT HeLa cells (protein which is expressed from the SMARCA4 gene) (Homo sapiens, UniProt P51532)
Construct: protein which is expressed from the SMARCA2 and SMARCA4 genes; host or cells: HeLa (SMARCA4-HiBiT engineered line)
Sequence (P51532 whole entry): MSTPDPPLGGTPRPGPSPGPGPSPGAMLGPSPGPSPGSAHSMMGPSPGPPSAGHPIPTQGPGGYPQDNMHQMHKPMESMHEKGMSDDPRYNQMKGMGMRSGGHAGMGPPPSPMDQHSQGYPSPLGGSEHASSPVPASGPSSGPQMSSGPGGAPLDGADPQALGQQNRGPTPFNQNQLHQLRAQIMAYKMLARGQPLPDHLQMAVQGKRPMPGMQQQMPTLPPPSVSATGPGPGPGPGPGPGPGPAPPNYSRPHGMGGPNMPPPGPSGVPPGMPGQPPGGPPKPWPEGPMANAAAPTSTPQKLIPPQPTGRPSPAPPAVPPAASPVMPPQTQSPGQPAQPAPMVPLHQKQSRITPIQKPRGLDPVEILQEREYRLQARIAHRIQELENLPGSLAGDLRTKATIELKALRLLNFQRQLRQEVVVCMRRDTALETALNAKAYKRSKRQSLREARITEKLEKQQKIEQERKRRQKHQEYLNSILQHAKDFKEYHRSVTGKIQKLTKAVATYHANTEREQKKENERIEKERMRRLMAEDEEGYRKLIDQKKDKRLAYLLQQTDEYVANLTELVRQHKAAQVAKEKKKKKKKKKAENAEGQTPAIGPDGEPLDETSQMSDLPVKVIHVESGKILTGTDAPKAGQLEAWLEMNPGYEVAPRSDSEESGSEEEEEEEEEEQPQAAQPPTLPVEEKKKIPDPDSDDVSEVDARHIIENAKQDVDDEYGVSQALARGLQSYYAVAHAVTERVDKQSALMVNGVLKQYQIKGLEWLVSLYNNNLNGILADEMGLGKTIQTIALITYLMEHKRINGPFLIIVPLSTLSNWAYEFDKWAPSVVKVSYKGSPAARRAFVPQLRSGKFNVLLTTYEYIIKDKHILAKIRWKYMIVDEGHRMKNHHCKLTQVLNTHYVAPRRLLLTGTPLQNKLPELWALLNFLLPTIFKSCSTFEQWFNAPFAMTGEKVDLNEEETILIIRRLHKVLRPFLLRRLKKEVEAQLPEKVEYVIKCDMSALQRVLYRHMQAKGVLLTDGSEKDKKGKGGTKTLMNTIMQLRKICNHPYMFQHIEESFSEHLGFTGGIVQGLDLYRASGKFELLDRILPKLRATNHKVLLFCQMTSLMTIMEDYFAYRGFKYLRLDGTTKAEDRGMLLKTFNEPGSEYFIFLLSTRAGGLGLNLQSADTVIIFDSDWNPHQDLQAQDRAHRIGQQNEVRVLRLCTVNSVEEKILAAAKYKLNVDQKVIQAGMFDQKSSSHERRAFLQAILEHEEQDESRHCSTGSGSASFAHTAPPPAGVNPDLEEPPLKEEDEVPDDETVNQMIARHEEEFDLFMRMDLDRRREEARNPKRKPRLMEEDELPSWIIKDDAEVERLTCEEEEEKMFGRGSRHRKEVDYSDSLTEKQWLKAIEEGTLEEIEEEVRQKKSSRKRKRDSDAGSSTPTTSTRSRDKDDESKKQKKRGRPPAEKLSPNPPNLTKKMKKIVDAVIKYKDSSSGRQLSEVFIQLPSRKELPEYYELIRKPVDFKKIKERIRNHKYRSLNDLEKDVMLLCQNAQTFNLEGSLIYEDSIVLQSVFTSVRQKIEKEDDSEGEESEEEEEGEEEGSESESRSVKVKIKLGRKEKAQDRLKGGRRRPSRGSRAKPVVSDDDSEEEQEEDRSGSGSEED
Experiment: SMARCA4 degradation assay (HiBiT-fusion HeLa cell line, 24 h, luminescence)
Type: cell-based
measured_property: DC50

Value sought for every listed compound: DC50.
1. CC(C)(C)OC(=O)N1CCC(C#Cc2nccc(N3CCCN(c4cc(-c5ccccc5O)nnc4N)CC3)n2)CC1
2. CC(=O)NCC#Cc1nccc(N2CCCN(c3cc(-c4ccccc4O)nnc3N)CC2)n1

1. 500 to 5000 nM
2. 500 to 5000 nM

Dear colleague, could you please provide DC50 for the compounds listed below?
1. C[C@@H]1CCN(c2cc(-c3ccccc3O)nnc2N)CCN1c1nc(C#CCN2CC3CC2C3)ncc1F
2. C[C@@H]1CCN(c2cc(-c3ccccc3O)nnc2N)CCN1c1ccnc(C#CC2CN(CC(F)(F)F)C2)n1
3. Nc1nnc(-c2ccccc2O)cc1N1CCCN(c2ccnc(/C=C/CNC(=O)c3cc4ncccn4n3)n2)CC1
4. C[C@H]1CN(c2ccnc(C#CCNC(=O)c3cc4ncccn4n3)n2)C[C@H](C)N1c1cc(-c2ccccc2O)nnc1N
5. C[C@@H]1CCN(c2cc(-c3ccccc3O)nnc2N)CCN1c1ccnc(C#CCN2[C@H](C)C[C@H]2C)n1

< 50 nM
50 to 500 nM
50 to 500 nM
500 to 5000 nM
< 50 nM

Quick batch: DC50 for everything below.
1. Nc1nnc(-c2ccccc2O)cc1N1CC2CCC(C1)N2c1nc(C#CCn2ccnc2)ncc1F
2. CC(C)(C)OC(=O)NCC#Cc1nccc(N2C3CCC2CN(c2cc(-c4ccccc4O)nnc2N)CC3)n1 (centres unmarked)
3. CC1CCN(c2cc(-c3ccccc3O)nnc2N)CCN1c1ccnc(C#CCNC(=O)c2cc3ncccn3n2)n1 (centres unmarked)
4. C[C@@H]1CCN(c2cc(-c3ccccc3O)nnc2N)CCN1c1ccnc(C#CCN2CC3(COC3)C2)n1

50 to 500 nM
< 50 nM
50 to 500 nM
> 5000 nM

Could you report DC50 for every entry in the following list?
1. Nc1nnc(-c2ccccc2O)cc1N1CCC2CCN(c3ccnc(C#CCNC(=O)c4cc5ncccn5n4)n3)C2C1 (centres unmarked)
2. C[C@@H]1CCN(c2cc(-c3ccccc3O)nnc2N)CCN1c1ccnc(C#CCN2CC3CC2(C)C3)n1
3. Nc1nnc(-c2ccccc2O)cc1N1CCCN(c2ccnc(C#CCN3CCC(Cc4ccccc4)CC3)n2)CC1

1: 50 to 500 nM; 2: 50 to 500 nM; 3: 50 to 500 nM

----------
Molecular target: SMARCA4-HiBiT HeLa cells (protein which is expressed from the SMARCA4 gene) (Homo sapiens, UniProt P51532)
Construct: protein which is expressed from the SMARCA2 and SMARCA4 genes; host or cells: HeLa (SMARCA4-HiBiT engineered line)
Assay: SMARCA4 degradation assay (HiBiT-fusion HeLa cell line, 24 h, luminescence)
Assay type: cell-based
Settings: @ 1 μM
measured_property: inhibition at 1 µM

Completed entries (count: 4):
1) NCC#Cc1nccc(N2CCC3(CCCN(c4cc(-c5ccccc5O)nnc4N)C3)CC2)n1 = < 30%
2) C[C@@H]1CCN(c2cc(-c3ccccc3O)nnc2N)CCN1c1ccnc(C#CCN2CC(F)C2)n1 = < 30%
3) C[C@H]1CCN1CC#Cc1nccc(N2CCCN(c3cc(-c4ccccc4O)nnc3N)CC2)n1 = 30 to 70%
4) Nc1nnc(-c2ccccc2O)cc1N1CCCN(c2ccnc(/C=C/CNC(=O)c3cnc4ccccc4n3)n2)CC1 = > 70%

For every record below, what is its inhibition at 1 µM?
1. CN(C)c1cc(N2CCCN(c3cc(-c4ccccc4O)nnc3N)CC2)nc(C#CCNC(=O)c2cc3ncccn3n2)n1
2. Nc1nnc(-c2ccccc2O)cc1N1CCCN(c2ccnc(C#CCN3C[C@H]4C[C@@H]3CO4)n2)CC1
3. CC(C)(C)OC(=O)N1CC(C#Cc2nccc(N3CCCN(c4cc(-c5ccccc5O)nnc4N)CC3)n2)C1
4. C[C@@H]1CCCN1CC#Cc1nccc(N2CCN(c3cc(-c4ccccc4O)nnc3N)CC[C@H]2C)n1
5. C[C@H]1CCN(c2cc(-c3ccccc3O)nnc2N)CCN1c1ccnc(C#CCN(C)C)n1

1: > 70%; 2: 30 to 70%; 3: 30 to 70%; 4: 30 to 70%; 5: > 70%

Please supply inhibition at 1 µM for each of the following items, keeping them in order.
1. Nc1nnc(-c2ccccc2O)cc1N1CCCN(c2ccnc(C#CCn3ccnn3)n2)CC1
2. Cn1nccc1OCC#Cc1nccc(N2CCCN(c3cc(-c4ccccc4O)nnc3N)CC2)n1
3. CN1C(=O)NC2(CCN(CC#Cc3nccc(N4CCCN(c5cc(-c6ccccc6O)nnc5N)CC4)n3)CC2)C1=O
4. C/C=C/c1nccc(N2CCN(c3cc(-c4ccccc4O)nnc3N)CC[C@H]2C)n1

["30 to 70%", "30 to 70%", "30 to 70%", "> 70%"]

I'm hoping you can list inhibition at 1 µM for every compound here, please.
1. C[C@@H]1CCN(c2cc(-c3ccccc3O)nnc2N)CCN1c1nc(C#CCn2cncn2)ncc1F
2. CN(C)CC#Cc1nccc(N2C[C@H]3CC[C@@H](C2)[C@H]3Oc2cc(-c3ccccc3O)nnc2N)n1

1: 30 to 70%; 2: < 30%
